Quick reference: Kd of the listed items.
Experimental System: T1, extracellular domain of human BCMA (human, UniProt Q02223 1-54)
T1 construct: amine-linked to Octet AR2G tips; also called hsBCMA; BCMA (human)
T1 sequence: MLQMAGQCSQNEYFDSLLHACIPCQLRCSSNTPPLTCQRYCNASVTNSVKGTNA
Protocol Text: Octet BLI; Fab 200 nM
Units required after the number.

AB200-R1a-Fab_VH24 (Fab, V domains shown) VH: QVQLVQSGAEVKKPGSSVKVSCKASGGTFTNYWMHWVRQAPGQGLEWMGATYRGHSNTYYNQKFKGRVTITADKSTSTAYMELSSLRSEDTAVYYCARGAIYHGYDVIDNWGQGTLVTVSS VL: DIQMTQSPSSLSASVGDRVTITCSATQDISNYLNWYQQKPGKAPKLLIYFTSNLQSGVPSRFSGSGSGTDFTLTISSLQPEDFATYYCQQYRKLPWTFGQGTKLEIKR :: 13.1 nM

Turning to the following binder.
For the binder AB200-R1a-Fab_VH37 (Fab, V domains shown) VH: QVQLVQSGAEVKKPGSSVKVSCKASGGTFTNYWMHWVRQAPGQGLEWMGATYKGHSDTYYNQKFRGRVTITADKSTSTAYMELSSLRSEDTAVYYCARGAIYHGYDVLDNWGQGTLVTVSS VL: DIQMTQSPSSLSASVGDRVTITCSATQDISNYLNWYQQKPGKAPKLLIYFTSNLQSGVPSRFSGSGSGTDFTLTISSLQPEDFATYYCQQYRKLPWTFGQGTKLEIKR , what Kd is on record?
5.28 nM
